Biological target: h2B11 (Homo sapiens, UniProt Q5JQS5)
Sequence (Q5JQS5 whole entry): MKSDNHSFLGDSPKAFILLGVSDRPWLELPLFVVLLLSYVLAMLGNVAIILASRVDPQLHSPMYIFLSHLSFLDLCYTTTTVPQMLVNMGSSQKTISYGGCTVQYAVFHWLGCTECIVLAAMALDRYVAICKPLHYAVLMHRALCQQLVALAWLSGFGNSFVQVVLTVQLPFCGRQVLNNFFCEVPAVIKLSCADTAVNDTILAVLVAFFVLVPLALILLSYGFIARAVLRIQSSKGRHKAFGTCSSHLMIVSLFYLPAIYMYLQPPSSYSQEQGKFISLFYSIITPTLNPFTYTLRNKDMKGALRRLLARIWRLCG
Test: cell-based
pEC50: −log10 of the molar value.

SMILES NOTATION: O=c1ccc2ccccc2o1
pEC50: 4.14

###

Target: UniProt Q8NHC4
Sequence (Q8NHC4 whole entry): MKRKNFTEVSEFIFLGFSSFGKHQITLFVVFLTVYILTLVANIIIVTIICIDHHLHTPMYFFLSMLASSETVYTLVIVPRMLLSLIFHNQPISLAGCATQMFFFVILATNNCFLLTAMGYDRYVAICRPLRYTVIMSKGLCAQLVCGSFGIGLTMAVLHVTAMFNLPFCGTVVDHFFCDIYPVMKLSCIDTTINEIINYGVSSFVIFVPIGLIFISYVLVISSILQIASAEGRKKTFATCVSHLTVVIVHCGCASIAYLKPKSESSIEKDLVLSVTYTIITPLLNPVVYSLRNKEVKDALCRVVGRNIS
Assay: cell-based
From the text: Figure 6 Dose-response curves of OR orthologs and paralogs to a given ligand. (A) OR5K1 orthologs and 5 K subfamily to eugenol methyl ether. (B) OR8D1 orthologs and 8D subfamily members to 4,5-dimethyl-3-hydroxy-2,5-dihydrofuran-2-one. […] X-axis is the concentration of a given odor in Log Molar. Y-axis is normalized response (n = 3, ± S.E.M.). Human (h), chimpanzee (c) and rhesus macaque (m), mouse receptors (m+number); para indicates a receptor that is a paralog to the human reference OR. […]

MOLECULE: CC(C)(O)CCCC1=CCC(C=O)CC1 (stereo not shown)
EC50 [µM]: 47.9

###

Molecular target: h10G4 (Homo sapiens, UniProt Q8NGN3)
Sequence (Q8NGN3 whole entry): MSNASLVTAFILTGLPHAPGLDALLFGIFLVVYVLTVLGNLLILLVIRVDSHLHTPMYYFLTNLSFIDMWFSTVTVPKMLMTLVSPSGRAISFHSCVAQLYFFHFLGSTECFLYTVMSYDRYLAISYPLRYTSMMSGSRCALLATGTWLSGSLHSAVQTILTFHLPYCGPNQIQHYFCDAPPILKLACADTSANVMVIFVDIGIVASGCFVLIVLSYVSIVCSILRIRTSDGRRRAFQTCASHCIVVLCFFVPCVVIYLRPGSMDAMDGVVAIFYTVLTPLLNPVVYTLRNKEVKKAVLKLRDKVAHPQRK
Test: cell-based
Source text: Figure 6 Dose-response curves of OR orthologs and paralogs to a given ligand. (A) OR5K1 orthologs and 5 K subfamily to eugenol methyl ether. (B) OR8D1 orthologs and 8D subfamily members to 4,5-dimethyl-3-hydroxy-2,5-dihydrofuran-2-one. […] X-axis is the concentration of a given odor in Log Molar. Y-axis is normalized response (n = 3, ± S.E.M.). Human (h), chimpanzee (c) and rhesus macaque (m), mouse receptors (m+number); para indicates a receptor that is a paralog to the human reference OR. […]

COMPOUND: CCOc1cc(C=O)ccc1O [ethyl vanillin]
TESTED TARGET: h10G4 (Homo sapiens, UniProt Q8NGN3)
EC50 [µM]: 40.7

###

Biological target: human OR51L1 (Homo sapiens, UniProt Q8NGJ5)
Sequence (Q8NGJ5 whole entry): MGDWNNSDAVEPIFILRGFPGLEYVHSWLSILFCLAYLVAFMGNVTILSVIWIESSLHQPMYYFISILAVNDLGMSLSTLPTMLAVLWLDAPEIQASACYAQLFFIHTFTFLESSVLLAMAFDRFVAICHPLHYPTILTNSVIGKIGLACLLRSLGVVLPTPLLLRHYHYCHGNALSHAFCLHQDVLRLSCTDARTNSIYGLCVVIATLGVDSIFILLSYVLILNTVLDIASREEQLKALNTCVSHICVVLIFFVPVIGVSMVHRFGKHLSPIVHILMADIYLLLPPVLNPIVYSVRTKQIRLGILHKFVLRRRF
Experiment: cell-based
Conditions: ortholog set

COMPOUND: C=CCOC(=O)Cc1ccccc1 [allyl phenyl acetate]
EC50 (µM): 9.12

###

Biological target: UniProt Q8WZ94
Sequence (Q8WZ94 whole entry): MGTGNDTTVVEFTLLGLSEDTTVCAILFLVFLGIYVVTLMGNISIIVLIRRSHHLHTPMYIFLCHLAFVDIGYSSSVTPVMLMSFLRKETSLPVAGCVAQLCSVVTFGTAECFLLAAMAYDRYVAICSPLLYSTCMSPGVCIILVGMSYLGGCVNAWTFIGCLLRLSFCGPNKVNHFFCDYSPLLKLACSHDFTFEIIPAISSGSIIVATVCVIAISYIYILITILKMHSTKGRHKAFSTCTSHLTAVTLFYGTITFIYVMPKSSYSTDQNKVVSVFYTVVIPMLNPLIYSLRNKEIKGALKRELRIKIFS
Experiment: cell-based
pEC50: −log10 of the molar value.
ASSAY ENDPOINT: pEC50

MOLECULE: O=c1ccc2ccccc2o1 [coumarin]
TESTED TARGET: UniProt Q8WZ94
ASSAY ENDPOINT: pEC50
QUANTITATIVE READOUT: 5.53

###

Biological target: h51E1 (Homo sapiens, UniProt Q8TCB6)
Sequence (Q8TCB6 whole entry): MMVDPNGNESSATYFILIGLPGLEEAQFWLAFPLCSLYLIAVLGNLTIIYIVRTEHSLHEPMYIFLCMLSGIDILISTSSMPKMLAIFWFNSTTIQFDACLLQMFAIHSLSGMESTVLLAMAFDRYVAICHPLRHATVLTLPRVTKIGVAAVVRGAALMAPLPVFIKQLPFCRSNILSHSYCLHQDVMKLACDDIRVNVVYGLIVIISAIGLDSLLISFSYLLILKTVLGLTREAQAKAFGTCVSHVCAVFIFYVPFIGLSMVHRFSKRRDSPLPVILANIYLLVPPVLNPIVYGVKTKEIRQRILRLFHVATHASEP
Experiment: cell-based
pEC50: −log10 of the molar value.

COMPOUND: CCCC(=O)O [butyric acid]
pEC50: 4.24

###

Biological target: mouse MOR256-17 (Mus musculus)
Sequence (P23275 whole entry): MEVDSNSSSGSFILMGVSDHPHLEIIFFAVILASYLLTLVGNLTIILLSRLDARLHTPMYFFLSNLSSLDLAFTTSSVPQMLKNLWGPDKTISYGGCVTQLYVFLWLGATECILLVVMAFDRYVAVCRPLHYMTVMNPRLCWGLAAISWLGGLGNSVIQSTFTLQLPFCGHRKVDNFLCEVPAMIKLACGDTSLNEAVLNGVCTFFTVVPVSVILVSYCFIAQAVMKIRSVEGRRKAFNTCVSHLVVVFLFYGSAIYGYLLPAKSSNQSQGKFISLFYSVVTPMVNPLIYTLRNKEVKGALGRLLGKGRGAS
Assay: cell-based
Conditions: ortholog set

SMILES NOTATION: O=c1ccc2ccccc2o1
TESTED TARGET: mouse MOR256-17 (Mus musculus)
VALUE UNIT: µM
EC50: 44.7

###

Target: chimp OR8K3 (Pan troglodytes, UniProt A0A2J8LC19)
Construct: full-length ORF from genomic DNA, N-terminal Rho-tag, Hana3A cells with human RTP1S
Sequence (A0A2J8LC19 1-312): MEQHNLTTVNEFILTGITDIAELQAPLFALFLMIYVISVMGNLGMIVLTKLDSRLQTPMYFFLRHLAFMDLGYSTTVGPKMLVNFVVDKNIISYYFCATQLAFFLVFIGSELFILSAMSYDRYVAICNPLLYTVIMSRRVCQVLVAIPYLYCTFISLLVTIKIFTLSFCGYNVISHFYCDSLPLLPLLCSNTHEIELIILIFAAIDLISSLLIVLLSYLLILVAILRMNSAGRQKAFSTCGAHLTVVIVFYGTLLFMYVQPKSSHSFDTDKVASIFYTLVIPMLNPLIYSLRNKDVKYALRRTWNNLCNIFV
Experiment: cell-based

COMPOUND: CC(C)[C@H]1CC[C@H](C)C[C@@H]1O [(+)-menthol]
TESTED TARGET: chimp OR8K3 (Pan troglodytes, UniProt A0A2J8LC19)
VALUE UNIT: µM
EC50: 9.12
